Origin of values: ChEMBL document CHEMBL3734675

Test system: Enterococcus faecium
assay-text: Antibacterial activity against Enterococcus faecium 14-2 after 18 to 24 hrs by two-fold serial dilution method
Format: functional
measured-endpoint: MIC (µg/mL)
Please reply with the bare figure in µg/mL and do not write the unit itself.

Lab note: compound CCO/N=C1/CN(c2nc3c(cc2F)c(=O)c(C(=O)O)cn3[C@@H]2C[C@@H]2F)CC1CNC1CC1 (stereo partly drawn) tested on Enterococcus faecium; recorded MIC was 4

Lab note: compound C[C@H]1COc2c(N3C/C(=N/OCc4ccccc4)C(CNC4CC4)C3)c(F)cc3c(=O)c(C(=O)O)cn1c23 (stereo partly drawn) tested on Enterococcus faecium; recorded MIC was 4

Lab note: compound O=C(O)c1cn([C@@H]2C[C@@H]2F)c2nc(N3C/C(=N/OCc4ccccc4)C(CNC4CC4)C3)c(F)cc2c1=O (stereo partly drawn) tested on Enterococcus faecium; recorded MIC was 8

Lab note: compound CCO/N=C1/CN(c2c(F)cc3c(=O)c(C(=O)O)cn([C@@H]4C[C@@H]4F)c3c2OC)CC1CNC1CC1 (stereo partly drawn) tested on Enterococcus faecium; recorded MIC was 8

Lab note: compound "O=C(O)c1cn(C2CC2)c2cc(N3CCNCC3)c(F)cc2c1=O" tested on Enterococcus faecium; recorded MIC was 32

Lab note: compound CCO/N=C1/CN(c2nc3c(cc2F)c(=O)c(C(=O)O)cn3-c2nc(N)c(F)cc2F)CC1(C)CNC1CC1 (stereo not drawn) tested on Enterococcus faecium; recorded MIC was 128

Lab note: compound CC1(CNC2CC2)CN(c2nc3c(cc2F)c(=O)c(C(=O)O)cn3-c2nc(N)c(F)cc2F)C/C1=N/OCc1ccccc1 (stereo not drawn) tested on Enterococcus faecium; recorded MIC was 32

---

Test system: Staphylococcus aureus
assay-text: Antibacterial activity against methicillin-sensitive Staphylococcus aureus 14-4 after 18 to 24 hrs by two-fold serial dilution method
Assay type: functional
measured-endpoint: MIC (µg/mL)
Please reply with the bare figure in µg/mL and do not write the unit itself.

The recorded MIC for CO/N=C1/CN(c2nc3c(cc2F)c(=O)c(C(=O)O)cn3-c2nc(N)c(F)cc2F)CC1(C)CNC1CC1 (stereo not drawn) is 8

The recorded MIC for CCO/N=C1/CN(c2c(F)cc3c(=O)c(C(=O)O)cn([C@@H]4C[C@@H]4F)c3c2OC)CC1CNC1CC1 (stereo partly drawn) is 0.06

The recorded MIC for "O=C(O)c1cn(C2CC2)c2cc(N3CCNCC3)c(F)cc2c1=O" is 0.5

The recorded MIC for CC1(CNC2CC2)CN(c2nc3c(cc2F)c(=O)c(C(=O)O)cn3C2CC2)C/C1=N/OCc1ccccc1 (stereo not drawn) is 0.5

The recorded MIC for CC1(CNC2CC2)CN(c2nc3c(cc2F)c(=O)c(C(=O)O)cn3[C@@H]2C[C@@H]2F)C/C1=N/OCc1ccccc1 (stereo partly drawn) is 8

The recorded MIC for CO/N=C1/CN(c2nc3c(cc2F)c(=O)c(C(=O)O)cn3C2CC2)CC1(C)CNC1CC1 (stereo not drawn) is 0.5

The recorded MIC for CO/N=C1/CN(c2c(F)cc3c(=O)c(C(=O)O)cn4c3c2OC[C@@H]4CF)CC1(C)CNC1CC1 (stereo partly drawn) is 0.03

The recorded MIC for CCO/N=C1/CN(c2nc3c(cc2F)c(=O)c(C(=O)O)cn3[C@@H]2C[C@@H]2F)CC1CNC1CC1 (stereo partly drawn) is 8

The recorded MIC for CCO/N=C1/CN(c2nc3c(cc2F)c(=O)c(C(=O)O)cn3-c2nc(N)c(F)cc2F)CC1(C)CNC1CC1 (stereo not drawn) is 4

The recorded MIC for CO/N=C1/CN(c2c(F)cc3c(=O)c(C(=O)O)cn4c3c2OC[C@@H]4C)CC1CNC1CC1 (stereo partly drawn) is 16

The recorded MIC for CC1(CNC2CC2)CN(c2nc3c(cc2F)c(=O)c(C(=O)O)cn3-c2nc(N)c(F)cc2F)C/C1=N/OCc1ccccc1 (stereo not drawn) is 4

The recorded MIC for Nc1nc(-n2cc(C(=O)O)c(=O)c3cc(F)c(N4C/C(=N/OCc5ccccc5)C(CNC5CC5)C4)nc32)c(F)cc1F (stereo not drawn) is 32

The recorded MIC for CO/N=C1/CN(c2c(F)cc3c(=O)c(C(=O)O)cn4c3c2OC[C@@H]4C)CC1(C)CNC1CC1 (stereo partly drawn) is 0.015

The recorded MIC for CCO/N=C1/CN(c2nc3c(cc2F)c(=O)c(C(=O)O)cn3[C@@H]2C[C@@H]2F)CC1(C)CNC1CC1 (stereo partly drawn) is 1

The recorded MIC for CCO/N=C1/CN(c2nc3c(cc2F)c(=O)c(C(=O)O)cn3C2CC2)CC1CNC1CC1 (stereo not drawn) is 8

The recorded MIC for "C[C@H]1COc2c(N3CCN(C)CC3)c(F)cc3c(=O)c(C(=O)O)cn1c23.C[C@H]1COc2c(N3CCN(C)CC3)c(F)cc3c(=O)c(C(=O)O)cn1c23.O" is 0.5

The recorded MIC for O=C(O)c1cn(C2CC2)c2nc(N3C/C(=N/OCc4ccccc4)C(CNC4CC4)C3)c(F)cc2c1=O (stereo not drawn) is 8

The recorded MIC for CCO/N=C1/CN(c2nc3c(cc2F)c(=O)c(C(=O)O)cn3C2CC2)CC1(C)CNC1CC1 (stereo not drawn) is 0.25

The recorded MIC for O=C(O)c1cn2c3c(c(N4C/C(=N/OCc5ccccc5)C(CNC5CC5)C4)c(F)cc3c1=O)OC[C@@H]2CF (stereo partly drawn) is 0.03

The recorded MIC for CO/N=C1/CN(c2nc3c(cc2F)c(=O)c(C(=O)O)cn3[C@@H]2C[C@@H]2F)CC1CNC1CC1 (stereo partly drawn) is 16

The recorded MIC for CO/N=C1/CN(c2nc3c(cc2F)c(=O)c(C(=O)O)cn3[C@@H]2C[C@@H]2F)CC1(C)CNC1CC1 (stereo partly drawn) is 2

The recorded MIC for C[C@H]1COc2c(N3C/C(=N/OCc4ccccc4)C(CNC4CC4)C3)c(F)cc3c(=O)c(C(=O)O)cn1c23 (stereo partly drawn) is 0.06

The recorded MIC for O=C(O)c1cn([C@@H]2C[C@@H]2F)c2nc(N3C/C(=N/OCc4ccccc4)C(CNC4CC4)C3)c(F)cc2c1=O (stereo partly drawn) is 16

The recorded MIC for CCO/N=C1/CN(c2nc3c(cc2F)c(=O)c(C(=O)O)cn3-c2nc(N)c(F)cc2F)CC1CNC1CC1 (stereo not drawn) is 32

The recorded MIC for CCO/N=C1/CN(c2c(F)cc3c(=O)c(C(=O)O)cn4c3c2OC[C@@H]4C)CC1(C)CNC1CC1 (stereo partly drawn) is 0.06

The recorded MIC for CO/N=C1/CN(c2nc3c(cc2F)c(=O)c(C(=O)O)cn3C2CC2)CC1CNC1CC1 (stereo not drawn) is 8

The recorded MIC for CO/N=C1/CN(c2nc3c(cc2F)c(=O)c(C(=O)O)cn3-c2nc(N)c(F)cc2F)CC1CNC1CC1 (stereo not drawn) is 16

---

System: Streptococcus pneumoniae
assay-text: Antibacterial activity against methicillin-resistant Streptococcus pneumoniae ATCC 19615 after 18 to 24 hrs by two-fold serial dilution method
Type: functional
I'd appreciate it if you could supply log10(MIC) values for the items below.
Please note: log10 values; quantity MIC; unit µg/mL.

Lab note: compound CO/N=C1/CN(c2nc3c(cc2F)c(=O)c(C(=O)O)cn3-c2nc(N)c(F)cc2F)CC1(C)CNC1CC1 (configuration not stated) tested on Streptococcus pneumoniae; recorded log10(MIC) was 0.60

Lab note: compound CCO/N=C1/CN(c2nc3c(cc2F)c(=O)c(C(=O)O)cn3[C@@H]2C[C@@H]2F)CC1CNC1CC1 (some centres not stated) tested on Streptococcus pneumoniae; recorded log10(MIC) was 0.00

Lab note: compound CO/N=C1/CN(c2nc3c(cc2F)c(=O)c(C(=O)O)cn3C2CC2)CC1(C)CNC1CC1 (configuration not stated) tested on Streptococcus pneumoniae; recorded log10(MIC) was -0.60

Lab note: compound CCO/N=C1/CN(c2nc3c(cc2F)c(=O)c(C(=O)O)cn3-c2nc(N)c(F)cc2F)CC1CNC1CC1 (configuration not stated) tested on Streptococcus pneumoniae; recorded log10(MIC) was 1.20

Lab note: compound O=C(O)c1cn2c3c(c(N4C/C(=N/OCc5ccccc5)C(CNC5CC5)C4)c(F)cc3c1=O)OC[C@@H]2CF (some centres not stated) tested on Streptococcus pneumoniae; recorded log10(MIC) was -0.90

Lab note: compound CO/N=C1/CN(c2c(F)cc3c(=O)c(C(=O)O)cn4c3c2OC[C@@H]4CF)CC1(C)CNC1CC1 (some centres not stated) tested on Streptococcus pneumoniae; recorded log10(MIC) was -0.60

Lab note: compound CO/N=C1/CN(c2nc3c(cc2F)c(=O)c(C(=O)O)cn3-c2nc(N)c(F)cc2F)CC1CNC1CC1 (configuration not stated) tested on Streptococcus pneumoniae; recorded log10(MIC) was 1.51

Lab note: compound CO/N=C1/CN(c2nc3c(cc2F)c(=O)c(C(=O)O)cn3[C@@H]2C[C@@H]2F)CC1CNC1CC1 (some centres not stated) tested on Streptococcus pneumoniae; recorded log10(MIC) was 0.60

Lab note: compound O=C(O)c1cn(C2CC2)c2cc(N3CCNCC3)c(F)cc2c1=O [CIPROFLOXACIN] tested on Streptococcus pneumoniae; recorded log10(MIC) was 0.30

Lab note: compound CO/N=C1/CN(c2c(F)cc3c(=O)c(C(=O)O)cn(C4CC4)c3c2OC)CC1CNC1CC1 (configuration not stated) tested on Streptococcus pneumoniae; recorded log10(MIC) was 1.81

Lab note: compound O=C(O)c1cn([C@@H]2C[C@@H]2F)c2nc(N3C/C(=N/OCc4ccccc4)C(CNC4CC4)C3)c(F)cc2c1=O (some centres not stated) tested on Streptococcus pneumoniae; recorded log10(MIC) was 0.00

Lab note: compound O=C(O)c1cn(C2CC2)c2nc(N3C/C(=N/OCc4ccccc4)C(CNC4CC4)C3)c(F)cc2c1=O (configuration not stated) tested on Streptococcus pneumoniae; recorded log10(MIC) was 0.90

Lab note: compound CC1(CNC2CC2)CN(c2nc3c(cc2F)c(=O)c(C(=O)O)cn3C2CC2)C/C1=N/OCc1ccccc1 (configuration not stated) tested on Streptococcus pneumoniae; recorded log10(MIC) was -0.30

Lab note: compound CCO/N=C1/CN(c2c(F)cc3c(=O)c(C(=O)O)cn4c3c2OC[C@@H]4C)CC1(C)CNC1CC1 (some centres not stated) tested on Streptococcus pneumoniae; recorded log10(MIC) was -0.60

Lab note: compound CO/N=C1/CN(c2nc3c(cc2F)c(=O)c(C(=O)O)cn3C2CC2)CC1CNC1CC1 (configuration not stated) tested on Streptococcus pneumoniae; recorded log10(MIC) was 0.60

Lab note: compound CC1(CNC2CC2)CN(c2nc3c(cc2F)c(=O)c(C(=O)O)cn3-c2nc(N)c(F)cc2F)C/C1=N/OCc1ccccc1 (configuration not stated) tested on Streptococcus pneumoniae; recorded log10(MIC) was 0.90

Lab note: compound CCO/N=C1/CN(c2nc3c(cc2F)c(=O)c(C(=O)O)cn3C2CC2)CC1CNC1CC1 (configuration not stated) tested on Streptococcus pneumoniae; recorded log10(MIC) was 0.30

Lab note: compound CCO/N=C1/CN(c2nc3c(cc2F)c(=O)c(C(=O)O)cn3[C@@H]2C[C@@H]2F)CC1(C)CNC1CC1 (some centres not stated) tested on Streptococcus pneumoniae; recorded log10(MIC) was -0.60

Lab note: compound CC1(CNC2CC2)CN(c2nc3c(cc2F)c(=O)c(C(=O)O)cn3[C@@H]2C[C@@H]2F)C/C1=N/OCc1ccccc1 (some centres not stated) tested on Streptococcus pneumoniae; recorded log10(MIC) was 0.00

Lab note: compound CCO/N=C1/CN(c2nc3c(cc2F)c(=O)c(C(=O)O)cn3C2CC2)CC1(C)CNC1CC1 (configuration not stated) tested on Streptococcus pneumoniae; recorded log10(MIC) was -0.60

Lab note: compound C[C@H]1COc2c(N3C/C(=N/OCc4ccccc4)C(CNC4CC4)C3)c(F)cc3c(=O)c(C(=O)O)cn1c23 (some centres not stated) tested on Streptococcus pneumoniae; recorded log10(MIC) was -0.90

Lab note: compound CCO/N=C1/CN(c2nc3c(cc2F)c(=O)c(C(=O)O)cn3-c2nc(N)c(F)cc2F)CC1(C)CNC1CC1 (configuration not stated) tested on Streptococcus pneumoniae; recorded log10(MIC) was 1.20

Lab note: compound CO/N=C1/CN(c2nc3c(cc2F)c(=O)c(C(=O)O)cn3[C@@H]2C[C@@H]2F)CC1(C)CNC1CC1 (some centres not stated) tested on Streptococcus pneumoniae; recorded log10(MIC) was -0.30

Lab note: compound CO/N=C1/CN(c2c(F)cc3c(=O)c(C(=O)O)cn4c3c2OC[C@@H]4C)CC1(C)CNC1CC1 (some centres not stated) tested on Streptococcus pneumoniae; recorded log10(MIC) was -0.30

Lab note: compound CCO/N=C1/CN(c2c(F)cc3c(=O)c(C(=O)O)cn([C@@H]4C[C@@H]4F)c3c2OC)CC1CNC1CC1 (some centres not stated) tested on Streptococcus pneumoniae; recorded log10(MIC) was -0.60

Lab note: compound Nc1nc(-n2cc(C(=O)O)c(=O)c3cc(F)c(N4C/C(=N/OCc5ccccc5)C(CNC5CC5)C4)nc32)c(F)cc1F (configuration not stated) tested on Streptococcus pneumoniae; recorded log10(MIC) was 1.20

Lab note: compound CO/N=C1/CN(c2c(F)cc3c(=O)c(C(=O)O)cn4c3c2OC[C@@H]4C)CC1CNC1CC1 (some centres not stated) tested on Streptococcus pneumoniae; recorded log10(MIC) was 0.90
